Test system: Salmonella typhimurium
ASSAY_OVERVIEW: Microtiter plate dilution MIC, S. typhimurium
Assay type: cell-based
TEST_SETTINGS: Salmonella enterica, ATCC 14028 / TYPHIMURIUM; ATCC14028, 24 h, 100% inhibition; read-out: Minimum inhibitory concentration (MIC) S.t
Protocol: The microbial strains used in this study were Escherichia coli (ATCC 10798), Salmonella typhimurium (ATCC14028), Methicillin resistant Staphylococcus aureus (MRSA, Clinical isolate), Bacillus cereus (Toxigenic strain TS), and Candida albicans (ATCC 90028). […] The microtiter plate dilution method was used to determine the MIC (minimum inhibitory concentration) of compounds under study. […] Then the turbidity was measured using micro-plate reader (Biotek) at 620 nm wavelength. […]
This listing pairs compounds with measured MIC.
Number in µg/mL, nothing else.

| COMPOUND | MIC (µg/mL) |
| --- | --- |
| CN(C)[C@@H]1C(O)=C(C(N)=O)C(=O)[C@@]2(O)C(O)=C3C(=O)c4c(O)cccc4[C@@](C)(O)[C@H]3C[C@@H]12 [Tetracycline, reference compound] | 4 |
| COc1c(-c2ccc(O)c(O)c2)oc2cc(O)cc(O)c2c1=O [3-O-Methylquercetin] | 125 |
| CC1(C)S[C@@H]2[C@H](NC(=O)Cc3ccccc3)C(=O)N2[C@H]1C(=O)O [Penicillin G, reference compound] | 125 |

Below: the item to evaluate.
Per the record, COc1cc(-c2oc3cc(O)cc(O)c3c(=O)c2OC)ccc1O [3,3′-di-O-Methylquercetin] has MIC of 125
